pIC50 reference
- procedure_details: Inhibition of rate of ADP-stimulated gel-filtered human platelet aggregation mediated by integrin alphaIIb beta-3 in PLAGGIN assay
pIC50: −log10 of the molar value.

>  <substance_smiles>
C#C[C@H](CC(=O)O)NC(=O)CNC(=O)CCCc1ccc2c(n1)NCCC2

>  <pIC50>
< 5.00

$$$$
>  <substance_smiles>
C#C[C@H](CC(=O)O)NC(=O)CN1CC[C@H](CCc2ccc3c(n2)NCCC3)C1=O

>  <pIC50>
< 5.00

$$$$

Kindly review the next molecule as well.
Query: I would be grateful if you could share the reported pIC50 for O=C(O)C[C@H](NC(=O)CN1CC[C@H](CCc2ccc3c(n2)NCCC3)C1=O)c1cccnc1 .
Reply: < 5.00

====

- procedure_details: Inhibition of rate of ADP-stimulated gel-filtered human platelet aggregation mediated by integrin alphaIIb beta-3 in PLAGGIN assay
observable: IC50

See these solved cases before continuing.
>  <compound>
O=C(O)C[C@H](NC(=O)CN1CC[C@@H](CCc2ccc3c(n2)NCCC3)C1=O)c1cccnc1

>  <observable>
IC50

>  <assay_value>
> 10 µM

$$$$
>  <compound>
O=C(O)C[C@H](NC(=O)CNC(=O)CCCc1ccc2c(n1)NCCC2)c1cccnc1

>  <observable>
IC50

>  <assay_value>
> 10 µM

$$$$

Query: I would be grateful if you could share the reported IC50 for O=C(O)C[C@H](NC(=O)CN1CCN(CCc2ccc3c(n2)NCCC3)C1=O)c1cccnc1 .
Reply: 7.1 µM

Query: What do you have for O=C(O)CCNC(=O)CNC(=O)CCCc1ccc2c(n1)NCCC2 ?
Reply: > 10 µM

Query: What do you have for O=C(O)C[C@H](NC(=O)CN1CCCC(CCc2ccc3c(n2)NCCC3)C1=O)c1cccnc1 (stereo not given in full) ?
Reply: > 10 µM
